- Method notes: Cytotoxicity against human T47D cells assessed as decrease in cell viability after 48 hrs by CellTiter-Blue assay
- Format: functional, cell-based
Measurement kind: pIC50
// scale note: pIC50 = -log10(conc_M); give the bare number

// CC(=O)C(=O)N[C@@H]1/C=C(\C)C=C[C@@H](O)C/C=C(C)/C=C/[C@@H](O)C[C@H]2OC(=O)[C@]1(C)C(=O)[C@@H]2C : pIC50 value = 3.69
